Experiment: Mycobacterium tuberculosis growth inhibition, primary screen (AID 1259343)
Conditions: at 10 µM, active compounds read high
The whole screen tested about 6,200 compounds, of which about 2,900 (47%) were called active. The set was probably picked from earlier hits. The list shows a part of the results.
Measured Property: inhibition (%)
One number for each entry, in %.

Examples with answers:
Compound	inhibition [%]
NCc1ccc(Oc2cccc(Cl)c2Cl)cc1	62.9
Oc1ccccc1Oc1ccc(Oc2ccccc2O)cc1	25.7
CN=c1scc(-c2ccco2)n1N=Cc1c(O)ccc2ccccc12	54.4
CCCCn1c(O)c(C=Nc2ccccc2C(=O)O)c(C)c(C#N)c1=O	-10.6
CN=c1scc(-c2ccc(OC)cc2)n1N=Cc1cc(Br)c(O)c(OC)c1	97.6
CCN=c1scc(C)n1N=Cc1cc(Br)c(O)c(Br)c1	84.4
Cc1ccc(C)c(-c2cc(C(=O)NCCC(=O)NCc3ccc(F)cc3)no2)c1	71.3
Cc1cccc(C)c1-c1ccc(-c2nn[nH]n2)cc1	70.6

I'm hoping you can list inhibition for every compound here, please.
1. Cc1ccccc1N=C1NC(=O)C(Cc2ccccc2[N+](=O)[O-])S1 (configuration not stated)
2. CN=c1scc(-c2ccco2)n1N=Cc1cc(Br)c(O)c(OC)c1
3. COc1cc(C=NN=c2sc3ccccc3n2C)cc(OC)c1O
4. CCN=c1scc(C)n1N=Cc1ccc(Br)cc1

1. 56.7
2. 82.5
3. 68.8
4. 10.9

====

For each of the compounds below, state its inhibition.
Assay: Mycobacterium tuberculosis growth inhibition, primary screen (AID 1259343)
Conditions: at 10 µM, active compounds read high
Screen size: about 6,200 compounds; about 2,900 (47%) were called active. So high a share suggests a set chosen from earlier hits. The list shows a part of the results.

Examples with answers:
Compound	Result
O=C(NC1CC1)c1c(NC(=O)C23CC4CC(CC(C4)C2)C3)sc2c1CCCC2	41.1% (inactive)
Cc1ccc(C(=O)OCc2cc(C)on2)c(O)c1	-29.5% (inactive)
Cc1nc(COC(=O)c2cc3ccccc3cc2O)oc1C	54.9% (active)

I'm hoping you can list inhibition for every compound here, please.
1. CCOC(=O)c1sc(N)c(C(=O)OC)c1C
2. CC(C(=O)O)c1ccc2c(c1)[nH]c1ccc(Cl)cc12 (stereo unspecified)
3. O=C(Nc1nc(C2CC2)cs1)c1cc2ccccc2cc1O

1. -1.92% (inactive)
2. 86% (active)
3. 11.4% (inactive)

====

Test: Mycobacterium tuberculosis growth inhibition, primary screen (AID 1259343)
Details: at 10 µM, active compounds read high
About 2,900 (47%) of roughly 6,200 compounds were called active. So high a share suggests a set chosen from earlier hits. Some of the results follow.
For each of the compounds below, state its inhibition.
Give bare numbers, in %.

Entry Smiles	inhibition / %
Cc1nc(-n2nc(C3CC3)cc2NC(=O)c2cccc(F)c2)[nH]c(=O)c1C	100
CC(=O)c1cccc(CN2CCC(C(=O)Nc3ccc(-c4cccc(C)c4)cc3)CC2)c1	86.5
COCCCNc1nccc2[nH]c(-c3cccc(C(C)C)c3)nc12	78.4
Cc1nc(-n2nc(C3CC3)cc2NC(=O)c2ccc(F)cc2)[nH]c(=O)c1C	101

Data request, read-out inhibition, for CC(C)c1cccc(-c2nc3c(NCc4ccccn4)nccc3[nH]2)c1
82.7

====

Assay: Mycobacterium tuberculosis growth inhibition, primary screen (AID 1259343)
Conditions: at 10 µM, active compounds read high
The campaign covered roughly 6,200 compounds. About 2,900 (47%) were called active. The set was probably picked from earlier hits. This is one part of the list.
For each of the molecules below, state its inhibition.
Answers are plain numbers, in %.

Examples with answers:
Entry Smiles	Result
Cc1cc(NC(=O)c2cccc3ccccc23)n(-c2nc(C)c(C)c(=O)[nH]2)n1	-30.4
CCc1c(C)nc(-n2nc(C)cc2NC(=O)c2ccccc2C)[nH]c1=O	12.6
Brc1ccc2c(c1)CN(Cc1ccc3c(c1)OCO3)CO2	1.53
CCc1c(C)nc(-n2nc(C)cc2NC(=O)Cc2cccc3ccccc23)[nH]c1=O	98.5

Data request, read-out inhibition, for CCc1cc(=O)[nH]c(-n2nc(C)cc2NC(=O)c2ccccc2SC)n1
99.7

====

Test: Mycobacterium tuberculosis growth inhibition, primary screen (AID 1259343)
Settings: at 10 µM, active compounds read high
Out of some 6,200 compounds screened, about 2,900 (47%) were called active. The set was probably picked from earlier hits. This is one part of the list.
Please use MET whenever inhibition is not below 60%, and NOT MET whenever it is.

Molecule	Assigned Category
CCNC(=O)CSc1nnc(-c2ccccc2)o1	MET
O=C(Nc1nc2c(s1)CCc1ccccc1-2)C1CC1	MET

Given the entry c1coc(-c2nnc(SCc3nnc(-c4cccs4)o3)o2)c1 , answer whether its inhibition meets or surpasses 60%.
NOT MET

Now the same for Cc1ccc(F)cc1Oc1ccc2c(C3CC3)noc2n1
NOT MET

====

Assay: Mycobacterium tuberculosis growth inhibition, primary screen (AID 1259343)
Conditions: at 10 µM, active compounds read high
The campaign covered roughly 6,200 compounds. About 2,900 (47%) were called active. So high a share suggests a set chosen from earlier hits. The list shows a part of the results.
Measured Property: inhibition (%)
Answers are plain numbers, in %.

Examples with answers:
Molecule	inhibition (%)
O=C(O)c1sc(Br)c(I)c1I	7.67
CCc1cc2c(=O)n(CCC(C)C)c(=S)[nH]c2s1	-39.7
O=C(NCC1CC1)c1csc(N2CCN(Cc3ccc(Cl)cc3)C2=O)n1	33.3
CC(C)(C)c1ccc(C2=NC(=Cc3ccc4c(c3)OCO4)C(=O)O2)cc1	-19.9
O=C(C=Cc1ccc2c(c1)OCO2)c1ccc(Br)cc1	-39.3
O=C(Nc1ccsc1C(=O)O)c1ccc(Br)cc1	82.5
NC(=S)c1cc2ccccc2oc1=O	101
O=S(=O)(Nc1cc(Cl)ccc1F)c1cc(Cl)ccc1Cl	28.1
O=C(C=Cc1ccc2c(c1)OCO2)c1ccc(Cl)cc1Cl	73.5
COc1ccccc1N1C(=O)C(Cl)=C(Nc2ccc(S(N)(=O)=O)cc2)C1=O	-0.54

I'm hoping you can list inhibition for every molecule here, please.
1. CCOC(=O)C1=C(C)N(c2ccc3c(c2)OCCO3)C(=S)NC1c1cccc(F)c1 (configuration not stated)
2. Cc1cc(S(=O)(=O)Nc2ccc(F)c(Cl)c2)c(C)s1

1: 1.48; 2: 30.5

====

Experiment: Mycobacterium tuberculosis growth inhibition, primary screen (AID 1259343)
Settings: at 10 µM
The whole screen tested about 6,200 compounds, of which about 2,900 (47%) were called active. No stated cut-off is given here; in the data, active means inhibition above about 50%; inactive means the rest. The set was probably picked from earlier hits. This is one part of the list.
Response enum: True = active, False = inactive

Compound	Assigned Category
CCCc1cc(=O)[nH]c(-n2nc(C)cc2NC(=O)c2ccccc2[N+](=O)[O-])n1	True

Any idea what this test logged for CC(C)(C)C(=O)NC(=S)NCc1ccccc1 ?
True

Now the same for COc1ccc(C2NC(=O)NC(C)=C2C(=O)OCc2ccccc2)c(OC)c1 (configuration not stated)
False

Now the same for Cc1cc(C)nc(Oc2ccc(Br)cc2Br)n1
True

Now the same for CCc1cc(=O)[nH]c(-n2nc(C)cc2NC(=O)c2ccccc2[N+](=O)[O-])n1
True

Now the same for CCC(C)C(=O)Nc1nc(-c2ccc(Cl)cc2)c(C)s1 (configuration not stated)
True

Now the same for Cc1ccc(OCc2cn(-c3ccc(Cl)cc3)nn2)cn1
False

====

Experiment: Mycobacterium tuberculosis growth inhibition, primary screen (AID 1259343)
Conditions: at 10 µM, active compounds read high
In all, about 6,200 compounds went through this assay and about 2,900 (47%) were called active. So high a share suggests a set chosen from earlier hits. The list shows a part of the results.
Measured Property: inhibition (%)
Answers are plain numbers, in %.

Examples with answers:
Entry Smiles	Result Units	inhibition
COC(=O)[C@H]1[C@H]2C[C@@H]3c4[nH]c5cc(OC)ccc5c4CCN3C[C@H]2C[C@@H](OC(=O)c2cc(OC)c(OC)c(OC)c2)[C@@H]1OC	%	45.9
Cc1nc(-c2ccc(Cl)cc2)nc(N2CCNCC2)c1Cc1ccccc1	%	97.6
Cc1ccc(-c2nc(C)c(C(C)C)c(N3CCNCC3)n2)cc1	%	44

I'm hoping you can list inhibition for every molecule here, please.
1. O=C1C(=Cc2cccs2)CCCC1=Cc1cccs1
2. Fc1ccc(-c2nnc(SCc3cc(Cl)c4c(c3)OCCO4)o2)cc1
3. CCc1c(C)nc(-c2ccc(OC)cc2)nc1N1CCNCC1
4. C#CCN(CC=C)Cc1nc(-c2ccc(OCC)cc2)oc1C
5. CCOc1cccc(OCc2nc(-c3ccco3)oc2C)c1
6. Cc1cc(NC(=O)c2ccco2)n(-c2nc(C)c(C)c(=O)[nH]2)n1
7. Cc1cc(NC(=O)c2cc3ccccc3o2)n(-c2nc(C)c(C)c(=O)[nH]2)n1

1. 91.6
2. 95.4
3. 42.7
4. -15.4
5. 75.2
6. 100
7. -29.9
